Each recorded value in this set is attributed to the supplement of paper PMC6755084.

B1: minF1; the commonest letter at each place (parent)
chain: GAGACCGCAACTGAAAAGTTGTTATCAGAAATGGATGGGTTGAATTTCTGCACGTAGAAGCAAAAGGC

variants of: B1; experiment: fraction ligated after 30 min (ligated reads / total reads); higher = more ligase activity; settings: with F1*subA RNA substrate (template-directed ligation), 42 °C
Parameter fraction ligated: see the listing below.
// keep it numeric: no unit symbol after the value

Solved entries:
{"columns": ["variant.label", "fraction ligated"],
 "data": [
  ["A35C G42C", 0.00254],
  ["G33A A44T", 0.553],
  ["G34T A35C", 0.00324],
  ["T25C G37T", 0.00523],
  ["G33C A35T", 0.0199]
]}

Attention now shifts to the item below.
The variant T32G A44G showed fraction ligated equal to 0.0444
